Reference source: patent US20250243286A1

- TARGET_OF_ASSAY: T1, human ActRIIB (human, UniProt Q13705 19-137, limits assumed);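 note: solution equilibrium titration: antibodies held at fixed concentration, equilibrated overnight at 4 °C with serially diluted ActR2A or ActR2B, unbound antibody captured on antigen-coated plate, electrochemiluminescence readout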
- T1 construct: antigen in MSD-SET; also called ACVR2B; ActR2B
- T1 sequence: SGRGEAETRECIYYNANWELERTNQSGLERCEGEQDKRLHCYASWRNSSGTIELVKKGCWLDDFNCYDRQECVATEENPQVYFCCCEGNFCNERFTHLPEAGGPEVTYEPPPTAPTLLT
- MEASUREMENT_DESCRIPTION: MSD-SET
EXPERIMENTAL_READOUT: pKd
One number for each entry, as −log10 of the molar value.

Query (binder): Antibody Bäratatza (antibody, V domains shown, full-length IgG) VH: QVQLVQSGAEVKKPGASVKVSCKASGYTFTSSYINWVRQAPGQGLEWMGTINAVSGSTSYAQKFQGRVTMTRDTSISTAYMELSRLRSDDTAVYYCARSGWFDYWGQGTLVTVSS VL: QSALTQPASVSGSPGQSITISCTGTSSDVGSYNYVNWYQQHPGKAPKLMIYGVSKQQSGVSNRFSGSKSGNTASLTISGLQAEDEADYYCGTFAGGSYYGVFGGGTKLTVL ; field requested: pKd 11.30

Query (binder): Antibody Hutzelbrot (antibody, V domains shown, full-length IgG) VH: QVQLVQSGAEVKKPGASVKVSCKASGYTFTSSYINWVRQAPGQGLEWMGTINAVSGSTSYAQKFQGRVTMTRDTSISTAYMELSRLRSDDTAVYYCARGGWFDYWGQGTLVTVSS VL: QSALTQPASVSGSPGQSITISCTGTSSDVGSKNYVNWYQQHPGKAPKLMIYGVSKRQSGVSNRFSGSKSGNTASLTISGLQAEDEADYYCGTFAGGDYYGVFGGGTKLTVL ; field requested: pKd 11.00

***
Query (binder): Antibody Hasaschlegel (antibody, V domains shown, full-length IgG) VH: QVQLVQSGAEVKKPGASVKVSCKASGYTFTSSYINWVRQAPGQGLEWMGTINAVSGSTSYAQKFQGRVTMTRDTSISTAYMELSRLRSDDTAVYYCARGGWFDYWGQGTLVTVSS VL: QSALTQPASVSGSPGQSITISCTGTSSDVGSYDYVNWYQQHPGKAPKLMIHGVSKRESGVSNRFSGSKSGNTASLTISGLQAEDEADYYCGTFAGGSYYGVFGGGTKLTVL ; field requested: pKd 10.89
